Assay: Maximum concentration in brain of rats after intravenous administration
Format: ADME, organism-based
Set-up: route intravenous
Settings: rat
EXPERIMENTAL_ENDPOINT: Cmax (ng/g)
Hi! Could you send only the number? It should be in ng/g, unit omitted.

[
  {
    "SUBSTANCE_SMILES": "CS(=O)(=O)O.Oc1nc2ccc(N3CCN(CC4CC4)CC3)nc2c2ccccc12",
    "EXPERIMENTAL_ENDPOINT": "Cmax",
    "OUTPUT_UNIT": "ng/g",
    "MEASURED": 8850
  },
  {
    "SUBSTANCE_SMILES": "CN1CCN(c2ccc3nc(O)c4ccccc4c3n2)CC1.CS(=O)(=O)O",
    "EXPERIMENTAL_ENDPOINT": "Cmax",
    "OUTPUT_UNIT": "ng/g",
    "MEASURED": 13700
  },
  {
    "SUBSTANCE_SMILES": "Cl.O=C(CN1CCC(N2CCCC2)CC1)Nc1ccc2nc(O)c3ccccc3c2n1",
    "EXPERIMENTAL_ENDPOINT": "Cmax",
    "OUTPUT_UNIT": "ng/g",
    "MEASURED": 1440
  }
]

Moving on to another molecule below.
Please report the recorded Cmax for CS(=O)(=O)O.Oc1nc2ccc(N3CCNCC3)nc2c2ccccc12 . 2180
